Test system: HepG2
run.description: GSK_TCMDC: Percent inhibition of human HepG2 cell line. Test compounds present at 10uM.
Assay type: functional
assay.metric: Inhibition
The number alone won't do; follow it with the unit.

# structure.notation, Inhibition
records = [
    ("CC(=O)Nc1cccc(C(=O)Nc2ccc(-c3cccc(-c4nc5cc(C(F)(F)F)ccc5[nH]4)c3)cc2)c1", "81%"),
    ("COc1cc2c(=O)c(Cc3ccc(Cl)cc3)c(C)[nH]c2cc1F", "13%"),
    ("Cl.O=C(Nc1ccc(C(=O)Nc2cccc(C3=NCCN3)c2)cc1)Nc1ccc(C2=NCCN2)cc1", "0%"),
    ("Cc1ccc(O)cc1Nc1ccnc2ccc(-c3cccc(CN(C)C)c3)cc12", "0%"),
]

### Prompt Which Inhibition is reported for this compound? "O=C(O)C(=O)O.Oc1ccccc1CN1CCN(C(c2ccccc2)c2ccccc2)CC1"
### Response 0%

# credit: ChEMBL document CHEMBL1157539
